# TGI listing for each entry below
- System: NCI-H460 lung
- testDescription: NCI tumour cell line growth inhibition, 48 h

| compound | measurement |
| --- | --- |
| CSc1ccc2c(cc1=O)[C@@H](NC(=O)c1ccc([N+](=O)[O-])cc1)CCc1cc(O)c(O)c(O)c1-2 | > 100 µM |
| O=[p+]1c2ccccc2[nH]c2ccccc21 | > 100 µM |
| O=C1CSC(C(N=Nc2ccc(Cl)cc2)c2nc3ccccc3[nH]2)=N1 (centres undefined) | > 100 µM |
| NC(=O)SCC(=O)Nc1ccc2ncccc2c1 | > 100 µM |
| O=C1CCCC[C@H]1C(O)CC1CC(=O)N(c2ccccc2)C(=O)C1 (some centres undefined) | > 100 µM |
| N#C/C(=C\c1cccc2cnccc12)N1N=NC2C=CC=CC21 (centres undefined) | 32.7 µM |
| CC1CC(C(=O)OC2OC(COC3OC(CO)C(OC4OC(C)C(O)C(O)C4O)C(O)C3O)C(O)C(O)C2O)C2CCC3(C)C(=CCC4(C)C3CCC3C(C)(CO)C(O)C(O)CC34C)C2C1C (centres undefined) | 66.6 µM |
| CN=C(NC)N(C)c1nc(=[N+](C)C)ss1 | > 100 µM |
| CCCCN1CCN(c2ccc3nc(-c4ccc5nc(-c6ccc(OCC)c(OCC)c6)[nH]c5c4)[nH]c3c2)CC1 | 1.86 µM |
| CC(OC(=O)N(N(CCCl)S(C)(=O)=O)S(C)(=O)=O)c1ccc([N+](=O)[O-])cc1 (centres undefined) | > 100 µM |

*Q* Which TGI value is on record for CCCCCCCCCCCCCCCCOc1ccc(/C=C/C2=[N+](CCCl)CCO2)cc1 ?
*A* > 100 µM

*Q* Which TGI value is on record for C[C@]12CC[C@@H]3c4ccc(O)cc4CC[C@H]3[C@@H]1CC[C@@H]2NS(=O)(=O)c1ccc2ccccc2c1 ?
*A* 4.97 µM

*Q* Which TGI value is on record for Cc1cc(NS(=O)(=O)c2ccc(Nc3c4ccccc4nc4c(C(=O)Nc5ccc(S(=O)(=O)N=C(N)N)cc5)ccc(Cl)c34)cc2)no1 ?
*A* > 100 µM

*Q* Which TGI value is on record for CC(=O)OC1[C@@H](OC(C)=O)CN(OCc2ccccc2)C[C@H]1OC(C)=O (some centres undefined) ?
*A* > 100 µM
